# assay_details: Metabolic stability in Sprague-Dawley rat liver microsomes assessed as compound remaining at 20 uM after 15 mins by LC/MS analysis
# Format: ADME, Microsome
# stated_conditions: read-out: Stability
Below, each entry is listed alongside its reported remaining at 0.25 h, 20 µM.

{"molecule": "O=C(Oc1ccc(Cl)cc1Cl)c1coc(-c2ccccc2)n1", "remaining at 0.25 h, 20 µM": "17.3%"}
{"molecule": "O=C(Oc1ccccc1N1CCOCC1)c1coc(-c2ccccc2)n1", "remaining at 0.25 h, 20 µM": "5.4%"}
{"molecule": "Cc1ccn2c(C(=O)NCc3ccccc3Cl)c(C)nc2c1", "remaining at 0.25 h, 20 µM": "58.9%"}
{"molecule": "CCc1ccccc1OC(=O)c1coc(-c2ccccc2)n1", "remaining at 0.25 h, 20 µM": "8.5%"}
{"molecule": "Cc1ccccc1OC(=O)c1coc(-c2ccccc2)n1", "remaining at 0.25 h, 20 µM": "13.4%"}
{"molecule": "Cc1cc(C)c(OC(=O)c2coc(-c3ccccc3)n2)c(C)c1", "remaining at 0.25 h, 20 µM": "22%"}
{"molecule": "O=C(OCc1ccccc1)c1coc(-c2ccccc2)n1", "remaining at 0.25 h, 20 µM": "2.7%"}
{"molecule": "Cc1cccc(OC(=O)c2coc(-c3ccccc3)n2)c1C", "remaining at 0.25 h, 20 µM": "4.9%"}
{"molecule": "O=C(OCc1ccccc1)[C@@H]1COC(c2ccccc2)=N1", "remaining at 0.25 h, 20 µM": "2.8%"}
{"molecule": "CCCCCCNC(=O)c1csc(-c2ccccc2)n1", "remaining at 0.25 h, 20 µM": "18.9%"}
{"molecule": "O=C(Oc1ccccc1)c1coc(-c2ccccc2)n1", "remaining at 0.25 h, 20 µM": "0.2%"}
{"molecule": "O=C(OCc1ccccc1)[C@@H]1COC(c2ccc(F)c([N+](=O)[O-])c2)=N1", "remaining at 0.25 h, 20 µM": "11.3%"}
{"molecule": "O=C(Oc1ccccc1C(F)(F)F)c1coc(-c2ccccc2)n1", "remaining at 0.25 h, 20 µM": "10.7%"}
{"molecule": "CCc1ccccc1COC(=O)c1c(C)nc2cc(C)ccn12", "remaining at 0.25 h, 20 µM": "37%"}
{"molecule": "Cc1cc(C)c(COC(=O)c2coc(-c3ccccc3)n2)c(C)c1", "remaining at 0.25 h, 20 µM": "18.1%"}
{"molecule": "COc1ccc(CNC(=O)c2c(C)nc3cc(C)ccn23)cc1", "remaining at 0.25 h, 20 µM": "33.6%"}
{"molecule": "C[C@H](OC(=O)c1coc(-c2ccccc2)n1)c1ccccc1", "remaining at 0.25 h, 20 µM": "5%"}
{"molecule": "Cc1ccccc1COC(=O)c1coc(-c2ccccc2)n1", "remaining at 0.25 h, 20 µM": "10.9%"}
{"molecule": "COc1ccccc1CNC(=O)c1c(C)nc2cc(C)ccn12", "remaining at 0.25 h, 20 µM": "41.6%"}
{"molecule": "O=C(NC1CCCCC1)c1csc(-c2ccccc2)n1", "remaining at 0.25 h, 20 µM": "3.3%"}
{"molecule": "O=C(OCc1ccccc1)c1coc(-c2ccccc2OCc2ccccc2)n1", "remaining at 0.25 h, 20 µM": "3.5%"}
{"molecule": "O=C(Oc1cccc(C(F)(F)F)c1)c1coc(-c2ccccc2)n1", "remaining at 0.25 h, 20 µM": "13%"}
{"molecule": "Cc1ccc(Cl)c(OC(=O)c2coc(-c3ccccc3)n2)c1", "remaining at 0.25 h, 20 µM": "14%"}
{"molecule": "Cc1ccc(COC(=O)c2coc(-c3ccccc3)n2)c(C)c1", "remaining at 0.25 h, 20 µM": "16.9%"}

Cited source: ChEMBL document CHEMBL2146467
